# Tested on: Human pancreatic cancer cell CFPAC-1
# method: CCK-8 cell proliferation assay, CFPAC-1
# Format: cell-based
# recorded-conditions: CFPAC-1 cells, CCK-8, 24 hrs with drug, OD 450 nm
pIC50: −log10 of the molar value.
measurement-label: pIC50

Use the examples below as a reference point.
O=C(NCCCCCC1CCN(C(=O)C2CCCN2)C1)Nc1ccncc1 (stereo not drawn) [BSS-TP014] = 7.29
COc1cccc(OC)c1C(=O)N1CCC(CCCCCCCNC(=O)Nc2ccncc2)C1 (stereo not drawn) [BSS-TP126] = 7.28
O=C(NCCCCCCC1CCN(C(=O)c2ccco2)C1)Nc1ccncc1 (stereo not drawn) [BSS-TP105] = 7.43
O=C(NCCCCCC1CCN(C(=O)c2occc2F)C1)Nc1ccncc1 (stereo not drawn) [BSS-TP030] = 7.40
COc1cccc(OC)c1C(=O)N1CCC(CCCCCNC(=O)Nc2cc(F)nc(F)c2)C1 (stereo not drawn) [BSS-TP032] = 7.41
O=C(NCCCCCC1CCN(C(=O)c2ccco2)C1)Nc1cc(F)nc(F)c1 (stereo not drawn) [BSS-TP035] = 7.46

P: O=C(NCCCCCC1CCN(C(=O)c2ccc[nH]2)C1)Nc1ccncc1 (stereo not drawn) [BSS-TP010]
Q: COc1cccc(OC)c1C(=O)N1CCC(CCCCCCNC(=O)Nc2ccncc2)C1 (stereo not drawn) [BSS-TP102]
Between P and Q , whose recorded pIC50 is greater? Choose, then provide that item's label. Q
(Q: 7.89, P: 7.42)

###

# Tested on: Human hepatoma cell HepG2
# method: CCK-8 cell proliferation assay, HepG2
# Type: cell-based
# recorded-conditions: HepG2 cells, CCK-8, 24 hrs with drug, OD 450 nm
pIC50: −log10 of the molar value.
measurement-label: pIC50

Use the examples below as a reference point.
O=C(NCCCCCCC1CCN(C(=O)c2cc3ccccc3o2)C1)Nc1ccnc(F)c1 (stereo not drawn) [BSS-TP124] = 7.20
O=C(NCCCCCCC1CCN(C(=O)c2ccco2)C1)Nc1cc(F)nc(F)c1 (stereo not drawn) [BSS-TP118] = 7.19
O=C(NCCCCCCC1CCN(C(=O)c2ccco2)C1)Nc1cccnc1 (stereo not drawn) [BSS-TP111] = 7.06
O=C(NCCCCCCC1CCN(C(=O)c2cccs2)C1)Nc1cccnc1 (stereo not drawn) [BSS-TP110] = 6.94
O=C(NCCCCCC1CCN(C(=O)c2cccs2)C1)Nc1ccnc(F)c1 (stereo not drawn) [BSS-TP019] = 7.07

a: COc1cccc(OC)c1C(=O)N1CCC(CCCCCCNC(=O)Nc2ccncc2)C1 (stereo not drawn) [BSS-TP102]
b: O=C(NCCCCCC1CCN(C(=O)c2cccs2)C1)Nc1cccnc1 (stereo not drawn) [BSS-TP024]
Which of these two has the smaller recorded pIC50: a or b ? Choose, then provide that item's label. b
(b: 7.13, a: 7.46)

P: O=C(NCCCCCC1CCN(C(=O)C2CCCS2)C1)Nc1ccncc1 (stereo not drawn) [BSS-TP013]
Q: COc1cccc(OC)c1C(=O)N1CCC(CCCCCNC(=O)Nc2cccnc2)C1 (stereo not drawn) [BSS-TP033]
Which of these two has the smaller recorded pIC50: P or Q ? Choose, then provide that item's label. P
(P: 6.88, Q: 7.09)

###

# System: Human hepatoma cell HepG2
# method: CCK-8 cell proliferation assay, HepG2
# Type: cell-based
# recorded-conditions: HepG2 cells, CCK-8, 24 hrs with drug, OD 450 nm
measurement-label: IC50 (nM)

COc1cccc(OC)c1C(=O)N1CCC(CCCCCCNC(=O)Nc2cc(F)nc(F)c2)C1 (stereo not drawn) = 52
O=C(NCCCCCC1CCN(C(=O)c2cc3ccccc3o2)C1)Nc1ccncc1 (stereo not drawn) = 83
O=C(NCCCCCCC1CCN(C(=O)c2cc3ccccc3[nH]2)C1)Nc1ccnc(F)c1 (stereo not drawn) = 59
O=C(NCCCCCC1CCN(C(=O)c2ccco2)C1)Nc1ccnc(F)c1 (stereo not drawn) = 61
O=C(NCCCCCCCC1CCN(C(=O)c2ccccc2)C1)Nc1ccnc(F)c1 (stereo not drawn) = 61

A: O=C(NCCCCCC1CCN(C(=O)c2ccco2)C1)Nc1cccnc1 (stereo not drawn)
B: COc1cccc(OC)c1C(=O)N1CCC(CCCCCNC(=O)Nc2cc(F)nc(F)c2)C1 (stereo not drawn)
Between A and B , whose recorded IC50 is greater? Choose, then provide that item's label. B

###

# System: Human hepatoma cell HepG2
# method: CCK-8 cell proliferation assay, HepG2
# Type: cell-based
# recorded-conditions: HepG2 cells, CCK-8, 24 hrs with drug, OD 450 nm
measurement-label: IC50 (nM)

O=C(NCCCCCC1CCN(C(=O)c2ccccc2)C1)Nc1cccnc1 (centres unmarked) = 72
O=C(NCCCCCCCC1CCN(C(=O)c2ccc[nH]2)C1)Nc1ccncc1 (centres unmarked) = 93
O=C(NCCCCCCC1CCN(C(=O)c2ccco2)C1)Nc1ccncc1 (centres unmarked) = 61

1: O=C(NCCCCCCC1CCN(C(=O)c2ccccc2)C1)Nc1cccnc1 (centres unmarked)
2: O=C(NCCCCCC1CCN(C(=O)c2ccccc2)C1)Nc1ccnc(F)c1 (centres unmarked)
Which of these two has the smaller recorded IC50: 1 or 2 ? Choose, then provide that item's label. 2

###

# Tested on: Human gastric cancer cell MKN45
# method: CCK-8 cell proliferation assay, MKN-45
# Type: cell-based
# recorded-conditions: MKN-45 cells, CCK-8, 24 hrs with drug, OD 450 nm
pIC50: −log10 of the molar value.
measurement-label: pIC50

Use the examples below as a reference point.
O=C(NCCCCCC1CCN(C(=O)C2CCCS2)C1)Nc1ccncc1 (centres unmarked) = 7.14
O=C(NCCCCCC1CCN(C(=O)c2ccccc2)C1)Nc1ccncc1 (centres unmarked) = 7.24
O=C(NCCCCCCC1CCN(C(=O)c2cc3ccccc3o2)C1)Nc1ccnc(F)c1 (centres unmarked) = 7.19
O=C(NCCCCCCC1CCN(C(=O)c2cccs2)C1)Nc1ccnc(F)c1 (centres unmarked) = 7.10
O=C(NCCCCCC1CCN(C(=O)c2ccco2)C1)Nc1cccnc1 (centres unmarked) = 7.36

A: O=C(NCCCCCC1CCN(C(=O)c2ccco2)C1)Nc1ccnc(F)c1 (centres unmarked)
B: O=C(NCCCCCC1CCN(C(=O)c2ccccc2)C1)Nc1cccnc1 (centres unmarked)
Which of these two has the smaller recorded pIC50: A or B ? Choose, then provide that item's label. B

I: O=C(NCCCCCCC1CCN(C(=O)c2ccc[nH]2)C1)Nc1cc(F)nc(F)c1 (centres unmarked)
II: O=C(NCCCCCCC1CCN(C(=O)c2cc3ccccc3[nH]2)C1)Nc1ccnc(F)c1 (centres unmarked)
Which of these two has the smaller recorded pIC50: I or II ? Choose, then provide that item's label. II
(II: 7.16, I: 7.38)

###

# System: Human pancreatic cancer cell CFPAC-1
# method: CCK-8 cell proliferation assay, CFPAC-1
# Assay type: cell-based
# recorded-conditions: CFPAC-1 cells, CCK-8, 24 hrs with drug, OD 450 nm
pIC50: −log10 of the molar value.
measurement-label: pIC50

O=C(NCCCCCC1CCN(C(=O)C2Cc3ccccc3O2)C1)Nc1ccncc1 (centres unmarked) [BSS-TP027] = 7.23
O=C(NCCCCC[C@@H]1CCN(C(=O)c2cccs2)C1)Nc1ccncc1 [BSS-TP040] = 7.54
O=C(NCCCCCC1CCN(C(=O)c2ccc[nH]2)C1)Nc1ccnc(F)c1 (centres unmarked) [BSS-TP017] = 7.39
O=C(NCCCCCCC1CCN(C(=O)c2cccs2)C1)Nc1cc(F)nc(F)c1 (centres unmarked) [BSS-TP119] = 7.42
COc1cccc(OC)c1C(=O)N1CCC(CCCCCNC(=O)Nc2ccnc(F)c2)C1 (centres unmarked) [BSS-TP016] = 7.49
O=C(NCCCCCC1CCN(C(=O)C2CCCO2)C1)Nc1ccncc1 (centres unmarked) [BSS-TP012] = 7.42
O=C(NCCCCCCC1CCN(C(=O)c2ccc[nH]2)C1)Nc1ccnc(F)c1 (centres unmarked) [BSS-TP114] = 7.48
O=C(/C=C/c1cccnc1)NCCCCC1CCN(C(=O)c2ccccc2)CC1 [FK866, reference compound] = 7.43
O=C(NCCCCCCC1CCN(C(=O)C2CCCN2)C1)Nc1ccncc1 (centres unmarked) [BSS-TP106] = 7.34
O=C(NCCCCCCC1CCN(C(=O)c2ccc[nH]2)C1)Nc1ccncc1 (centres unmarked) [BSS-TP104] = 7.48

I: O=C(NCCCCCCC1CCN(C(=O)c2cc3ccccc3[nH]2)C1)Nc1ccnc(F)c1 (centres unmarked) [BSS-TP123]
II: O=C(NCCCCCC1CCN(C(=O)c2ccco2)C1)Nc1ccncc1 (centres unmarked) [BSS-TP011]
Between I and II , whose recorded pIC50 is greater? Choose, then provide that item's label. II

P: O=C(NCCCCCCC1CCN(C(=O)c2cccs2)C1)Nc1cccnc1 (centres unmarked) [BSS-TP110]
Q: O=C(NCCCCCC1CCN(C(=O)c2cccs2)C1)Nc1ccncc1 (centres unmarked) [BSS-TP008]
Between P and Q , whose recorded pIC50 is greater? Choose, then provide that item's label. Q
(Q: 7.66, P: 7.28)
